# target of assay: High affinity nerve growth factor receptor (Homo sapiens, UniProt P04629)
# Sequence (P04629 whole entry): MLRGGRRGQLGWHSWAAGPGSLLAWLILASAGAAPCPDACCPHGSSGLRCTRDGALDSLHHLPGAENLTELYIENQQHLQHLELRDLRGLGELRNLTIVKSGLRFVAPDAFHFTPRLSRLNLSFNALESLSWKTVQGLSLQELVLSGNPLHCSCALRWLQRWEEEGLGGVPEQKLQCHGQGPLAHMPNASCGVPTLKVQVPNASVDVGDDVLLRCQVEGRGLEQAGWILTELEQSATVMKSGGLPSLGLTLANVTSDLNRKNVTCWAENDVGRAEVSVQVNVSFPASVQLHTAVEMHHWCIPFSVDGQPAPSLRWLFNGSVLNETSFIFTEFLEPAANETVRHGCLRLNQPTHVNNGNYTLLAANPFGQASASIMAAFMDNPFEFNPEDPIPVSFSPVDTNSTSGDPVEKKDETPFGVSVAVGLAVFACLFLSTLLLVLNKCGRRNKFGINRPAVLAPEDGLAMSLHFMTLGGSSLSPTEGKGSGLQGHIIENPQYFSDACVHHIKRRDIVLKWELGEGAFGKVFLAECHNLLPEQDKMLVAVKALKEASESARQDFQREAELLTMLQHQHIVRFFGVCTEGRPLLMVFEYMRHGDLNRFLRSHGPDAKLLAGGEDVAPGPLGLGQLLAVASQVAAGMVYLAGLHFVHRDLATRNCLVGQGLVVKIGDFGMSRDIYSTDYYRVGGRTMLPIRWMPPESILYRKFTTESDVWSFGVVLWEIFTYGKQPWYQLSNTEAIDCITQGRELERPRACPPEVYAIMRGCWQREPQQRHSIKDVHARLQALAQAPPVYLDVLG
# method summary: HotSpot Assay: The HotSpot assay platform was used to measure kinase/inhibitor interactions as described in Anastassiadis et al., Nat Biotechnol. 29:1039-45, 2011. In brief, for each reaction, kinase and substrate were mixed in a buffer containing 20 mM HEPES (pH 7.5), 10 mM MgCl2, 1 mM EGTA, 0.02% Brij35, 0.02 mg/mL BSA, 0.1 mM Na3VO4, 2 mM DTT, and 1% DMSO. Compounds were then added to each reaction mixture. After a 20-min incubation, ATP (Sigma-Aldrich) and [γ-33P] ATP (PerkinElmer) were added at a final total concentration of 100 μM. Reactions were carried out at room temperature for 2 h and spotted onto P81 ion exchange cellulose chromatography paper (Whatman). Filter paper was washed in 0.75% phosphoric acid to remove unincorporated ATP. The percent remaining kinase activity relative to a vehicle-containing (DMSO) kinase reaction was calculated for each kinase/inhibitor pair.
pIC50: −log10 of the molar value.

| molecule smiles | pIC50 |
| --- | --- |
| C=C1c2ncc(F)cc2[C@H]2CCCN2c2ccn3ncc(c3n2)C(=O)N[C@@H]1C | > 7.00 |

Hey, just so you know, these numbers are from ChEMBL document CHEMBL5728681.
